Tested on: HIV-1RF
Test: MTS cytoprotection assay, HIV-1RF infection in CEM-SS cells
Assay type: cell-based
Conditions: Human immunodeficiency virus 1; HIV-1RF in CEM-SS cells; read-out: EC50 HIV-1RF (inhibition of cytopathicity)
Protocol: In Vitro Antiviral Assays. Evaluation of the antiviral activity of compounds against HIV-1RF infection in CEM-SS cells was performed using the MTS cytoprotection assay as previously described. See, Rice, W. G.; Bader, J. P. Discovery and in Vitro Development of AIDS Antiviral Drugs as Biopharmaceuticals. Adv. Pharmacol. (San Diego) 1995, 6, 389-438, the disclosure of which is incorporated herein by reference. […]
pEC50: −log10 of the molar value.
Listing: pEC50 of selected molecules
MEASURED METRIC: pEC50

| SMILES | RECORDED VALUE |
| --- | --- |
| COC(=O)CCC/C=C(/c1cc(C)c2on(C)c(=O)c2c1)c1cc(Cl)ccc1OC | < 4.00 |
| COC(=O)CCC/C=C(\c1cc(F)cc(C(F)(F)F)c1)c1cc(C)c(OC)c(C(=O)OC)c1 | < 5.30 |
| COC(=O)CCC/C=C(\c1cccc(C#N)c1)c1cc(Cl)ccc1OC | 5.15 |
| COC(=O)CCC/C=C(\c1cc(C)c(OC)c(C(=O)OC)c1)c1cc(C)c2oc(=O)n(C)c2c1 | 7.52 |
| COC(=O)CCC/C=C(\c1cc(F)cc(C(F)(F)F)c1)c1cc(C)c2oc(=O)n(C)c2c1 | < 4.00 |
| COC(=O)c1cc(/C(=C/CCN2CCOC2=O)c2ccc(OC)c(OC)c2)cc(C)c1OC | < 4.00 |
| COC(=O)CCC/C=C(\c1cc(C)c(OC)c(C(=O)OC)c1)c1cc(Cl)ccc1OC | < 4.00 |
| COc1ccc(/C(=C\CCN2CCOC2=O)c2cc(F)cc(C(F)(F)F)c2)cc1OC | < 4.00 |
